B1: Far upstream element-binding protein 3, residues 75 to 150; numbered along this chain, Q96I24 (parent)
chain: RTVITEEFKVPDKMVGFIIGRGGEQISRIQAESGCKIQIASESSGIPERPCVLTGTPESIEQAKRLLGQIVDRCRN

- Variants of: B1
- PROCEDURE_SUMMARY: abundance fitness (aPCA) (normalised: wild type 0, dead -1); higher = more abundant; growth selection in yeast, the domain comes from the species named
- CONDITION: Homo sapiens
abundance fitness of -0.04 or higher: Satisfied. Under -0.04: Not satisfied.

Field: example entries. Status: answers known.
CHAIN_SEQUENCE: RTVITEEFKVPDKMVGFIIGRGGEQISRIQAESGCKIQIASESSRIPERPCVLTGTPESIEQAKRLLGQIVDRCRN [G45R]
CATEGORY: Not satisfied
--
CHAIN_SEQUENCE: RTVITEEFKVPDKMVGFIIGRGGEQISRIQAESGCKIQIASESSGDPERPCVLTGTPESIEQAKRLLGQIVDRCRN [I46D]
CATEGORY: Not satisfied
--
CHAIN_SEQUENCE: RTVIYEEFKVPDKMVGFIIGRGGEQISRIQAESGCKIQIASESSGIPERPCVLTGTPESIEQAKRLLGQIVDRCRN [T5Y]
CATEGORY: Not satisfied
--
CHAIN_SEQUENCE: RTVITEEFKVPDKMVGFIIGRGGEQISRIVAESGCKIQIASESSGIPERPCVLTGTPESIEQAKRLLGQIVDRCRN [Q30V]
CATEGORY: Not satisfied
--
CHAIN_SEQUENCE: RTVITEEFKVPDKMVGFIMGRGGEQISRIQAESGCKIQIASESSGIPERPCVLTGTPESIEQAKRLLGQIVDRCRN [I19M]
CATEGORY: Not satisfied

Challenge: Quick check: does RTVITEEFKVPDKMVGFIIGRGGEFISRIQAESGCKIQIASESSGIPERPCVLTGTPESIEQAKRLLGQIVDRCRN [Q25F] have abundance fitness greater than or equal to -0.04?
Response given: Not satisfied

Challenge: Item RTVITEEFKVPDKMVGFIIGRAGEQISRIQAESGCKIQIASESSGIPERPCVLTGTPESIEQAKRLLGQIVDRCRN [G22A] with abundance fitness of -0.04 or above?
Response given: Not satisfied

Challenge: Reported abundance fitness at or above -0.04? RTVITEEFKVPDKMVGFIIGRGGEQISRIQAESGCKIQIASESSGIPERPCVLTGTPEYIEQAKRLLGQIVDRCRN [S59Y]
Response given: Not satisfied

Challenge: Check the entry RTVITEEFKVPDKMVGFIIGQGGEQISRIQAESGCKIQIASESSGIPERPCVLTGTPESIEQAKRLLGQIVDRCRN [R21Q] : does abundance fitness equal or exceed -0.04?
Response given: Satisfied

Challenge: abundance fitness >= -0.04 for RTVITEEFKVPDKMVGFIIGRGGEQISRIQAESGCKIQIASESSGIPERPCVLTGTPESIEQAKRLLGQIVDRCGN [R75G] ?
Response given: Satisfied

These entries and their values trace back to the Human Domainome abundance scans (Beltran et al. 2025).
